Please go through the items and note down their EC50.
Test system: Entamoeba histolytica SFL-3
PROTOCOL DETAILS: Cytotoxicity of alkylphosphocholines on amebae (Trypan blue count, Probit)
Type: cell-based
CONDITION DETAILS: strain SFL-3, day 2 (48 h), read-out: ED50 (the source's name)
# number only, unit µM dropped from output

The compound CCCCCCCCCCCCCCCCCCOP(=O)([O-])OCC[N+](C)(C)C [APC 2, octadecylphosphocholine] on Entamoeba histolytica SFL-3: EC50 was 24

The compound CCCCCCCC/C=C\CCCCCCCCCOP(=O)([O-])OCC[N+](C)(C)C [APC 10, (Z)-10-nonadecenylphosphocholine] on Entamoeba histolytica SFL-3: EC50 was 20

The compound CCCCCCCC/C=C\CCCCCCCCOP(=O)([O-])OCC[N+](C)(C)C [APC 9, oleylphosphocholine] on Entamoeba histolytica SFL-3: EC50 was 16

The compound CCCCCCCCCCCCCCCCOP(=O)([O-])OCC[N+](C)(C)C [APC 1, hexadecylphosphocholine] on Entamoeba histolytica SFL-3: EC50 was 50

---

Tested on: Entamoeba histolytica SFL-3
PROTOCOL DETAILS: Cytotoxicity of alkylphosphocholines on amebae (Trypan blue count, Probit)
Assay type: cell-based
CONDITION DETAILS: strain SFL-3, day 1 (24 h), read-out: ED50 (the source's name)
PROPERTY MEASURED: pEC50
Please treat pEC50 as minus the base-10 logarithm of the molar concentration.

Memo: `CCCCCCCCCCCCCCCCOP(=O)([O-])OCC[N+](C)(C)C` , reported pEC50: 4.06

Memo: `CCCCCCCCCCCCCCCCCCOP(=O)([O-])OCC[N+](C)(C)C` , reported pEC50: 4.44

Memo: CCCCCCCC/C=C\CCCCCCCCCOP(=O)([O-])OCC[N+](C)(C)C [APC 10, (Z)-10-nonadecenylphosphocholine] , reported pEC50: 4.62

Memo: `CCCCCCCC/C=C\CCCCCCCCOP(=O)([O-])OCC[N+](C)(C)C` , reported pEC50: 4.49

---

System: Entamoeba histolytica HM-1:IMSS
PROTOCOL DETAILS: Cytotoxicity of alkylphosphocholines on amebae (Trypan blue count, Probit)
Assay type: cell-based
CONDITION DETAILS: strain HM-1:IMSS, day 1 (24 h), read-out: ED50 (the source's name)
Protocol: Entamoeba histolytica SFL-3 and HM-1: IMSS (American Type Culture collection, order number ATCC 30459), pathogenic amebae of zymodeme II, were cultured, at 37° C., in TYI-S-33 medium (Diamond et al., Trans. Roy. Soc. Trop. Med. Hyg. 72: 431-432 (1978)) containing 10% bovine serum. The cultures of SFL-3 were kept in 100 ml glass bottles while the cultures of HM-1:IMSS were kept in 50 ml tissue culture flasks. […] The effect of the alkylphosphocholines was determined after 24 h and after 48 h. […]
PROPERTY MEASURED: pEC50
Please treat pEC50 as minus the base-10 logarithm of the molar concentration.

Memo: `CCCCCCCC/C=C\CCCCCCCCOP(=O)([O-])OCC[N+](C)(C)C` , reported pEC50: 3.92

Memo: `CCCCCCCCCCCCCCCCCCOP(=O)([O-])OCC[N+](C)(C)C` , reported pEC50: 4.10

Memo: CCCCCCCC/C=C\CCCCCCCCCOP(=O)([O-])OCC[N+](C)(C)C [APC 10, (Z)-10-nonadecenylphosphocholine] , reported pEC50: 3.95

Memo: `CCCCCCCCCCCCCCCCOP(=O)([O-])OCC[N+](C)(C)C` , reported pEC50: 4.03
